tested on: S. aureus MS16401; experiment: In vitro antibacterial activity (MIC, agar plate dilution); format: cell-based; conditions: Staphylococcus aureus, S. aureus MS16401 (quinolone-resistant S. aureus), Mueller-Hinton agar
For each entry below, report its MIC value.
Give bare numbers, in µg/mL.

Previously resolved entries follow.
1. COc1c(N2C[C@@H](CNC3CC3)[C@H](C(F)(F)F)C2)c(F)cc2c(=O)c(C(=O)O)cn(C3CC3)c12 (relative stereo)
63
2. COc1c(N2C[C@H](CNC3CC3)[C@@H](C)C2)ccc2c(=O)c(C(=O)O)cn(C3CC3)c12
125
3. COc1c(N2C[C@@H](CNC3CC3)[C@H](C)C2)ccc2c(=O)c(C(=O)O)cn(C3CC3)c12
63
4. O=C(O)c1cn(C2CC2)c2c(OC(F)F)c(N3C[C@H](CNC4CC4)[C@H](F)C3)ccc2c1=O
63
5. COc1c(N2C[C@@H](CNC3CC3)[C@H](C)C2)c(F)cc2c(=O)c(C(=O)O)cn(C3CC3)c12 (relative stereo)
16

For each listed entry, give its MIC.
1. O=C(O)c1cn(C2CC2)c2c(OC(F)F)c(N3C[C@H](CNC4CC4)[C@H](F)C3)c(F)cc2c1=O
2. COc1c(N2C[C@H](CNC3CC3)[C@@H](F)C2)c(F)cc2c(=O)c(C(=O)O)cn(C3CC3)c12
3. COc1c(N2C[C@H](CNC3CC3)[C@H](F)C2)c(F)cc2c(=O)c(C(=O)O)cn(C3CC3)c12

### Response
[8, 16, 4]

### Prompt # query: MIC of entry `COc1c(N2C[C@H](CNC3CC3)[C@H](F)C2)ccc2c(=O)c(C(=O)O)cn(C3CC3)c12`
### Response 31

Cited source: patent US8106072B2
